read-out: Cytochrome P450 (CYP1A2), CYP1A2 (gene 1544); experiment: LTEA_HepaRG_CYP1A2: Life Technologies and Expression Analysis (LTEA) Assay for Cytochrome P450 (CYP1A2) using HepaRG (AID 2283479); conditions: mRNA level, 48 h; actives raise or lower the signal
The source made the active and inactive calls. Rule for the calls: active = hit-call score of the fitted dose curve at least 0.9, where 1 is the maximum; inactive = score below 0.9.
Please state which outcome applies, choosing from active, inactive

Please review the following examples before continuing.
CCCCC(CC)C(=O)OCCOCCOCCOC(=O)C(CC)CCCC (stereo unspecified) = inactive
CCCCCCCCN(C)C = inactive
COCc1nnc(-c2ccc[n+]([O-])c2)n1-c1c(Cl)c(Cl)cc2[nH]c(=O)c(=O)[nH]c12 = inactive
CC(C)C(=O)Nc1ccc([N+](=O)[O-])c(C(F)(F)F)c1 = active

Hey, what did the test say about C[C@]12C=CC(=O)C=C1CC[C@H]1[C@@H]3C[C@@H](O)[C@](O)(C(=O)CO)[C@@]3(C)C[C@H](O)[C@@]12F ?
active

# fetch the recorded call for O=C(O)c1cccc(C(=O)O)c1 here
active

====

assay: Tanguay_ZF_120hpf_OTIC_legacy: (Legacy) Oregon State University Tanguay Lab 120 Hour Post-fertilization zebrafish Assay for Otic Vesicle Malformation (AID 2283639)
Records with an inconclusive call do not appear. Activity calls are given as the source filed them. Rule for the calls: active = hit-call score of the fitted dose curve at least 0.9, where 1 is the maximum; inconclusive = response in the unintended direction; inactive = score below 0.9.
Your reply should match one of these outcome classes. active, inactive

Record excerpt, results attached:
O=c1[nH]cnc2c1ncn2[C@H]1CC[C@@H](CO)O1 = inactive
CCCCCCCCN(C)C = inactive
COc1cc2c(c(OC)c1OC)-c1ccc(OC)c(=O)cc1[C@@H](NC(C)=O)CC2 = active
c1ccc2cc3ccccc3cc2c1 = inactive
CCc1cccc(CC)c1N = inactive

How did this test come out for O=C(NO)C1(NS(=O)(=O)c2ccc(Oc3ccc(F)cc3)cc2)CCOCC1 ?
inactive

What did this assay record as the result for Cc1ccc(S(=O)(=O)NC(=O)NN2CCCCCC2)cc1 ?
inactive

What did the test return for c1ccc2ncccc2c1 ?
inactive

Please share the test call associated with CC1(C)C(=O)N(Cl)C(=O)N1Cl .
inactive

Outcome? CCOC(N)=O
inactive

Given C[C@]12C=CC(=O)C=C1CC[C@H]1[C@@H]3C[C@@H](O)[C@](O)(C(=O)CO)[C@@]3(C)C[C@H](O)[C@@]12F , state the outcome it received in this test.
inactive

Query: recorded result category for OC(Cn1cncn1)(Cn1cncn1)c1ccc(F)cc1F in this test
inactive

Outcome logged for C=CN1CCCC1=O in this assay:
inactive

Hi, sorry to bother you, what did the test record for CCCCOC(=O)c1ccccc1 ?
inactive

Test call, this compound: O=S1(=O)CCCO1
inactive

Assay result, entry CCN(CC)C(=S)SSC(=S)N(CC)CC — outcome?
inactive

Test call for this compound, please: CCCCCCCCCCCCCCCCOS(=O)(=O)O
inactive

What outcome does the record of this test show for O=C(O)c1cccc(C[C@@H]2COc3ccc(OCc4nc5cc(F)ccc5s4)cc3[C@@H]2O)c1 ?
inactive

Fill in: this test's call for CCCCCCOC(=O)CC(CC(=O)OCCCCCC)(OC(=O)CCC)C(=O)OCCCCCC is ___
inactive

Query: recorded result category for COS(C)(=O)=O in this test
inactive

====

experiment: CCTE_Shafer_MEA_acute_firing_rate_mean: CCTE's Neural Acute Assay for Mean Firing Rate, Shafer Lab (AID 2284009);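 note: analyzed for loss of signal so actives lower firing rate relative to DMSO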
Active and inactive are the calls of the source. The calls were made as follows: active = hit-call score of the fitted dose curve at least 0.9, where 1 is the maximum; inactive = score below 0.9.
Answer with one of the outcomes Yes = active, No = inactive

# example entries with known answers
Cn1c(=O)c2[nH]cnc2n(C)c1=O = No
OCc1ccccc1 = No
CC(C)C(=O)Nc1ccc([N+](=O)[O-])c(C(F)(F)F)c1 = Yes
COc1cc2c(c(OC)c1OC)-c1ccc(OC)c(=O)cc1[C@@H](NC(C)=O)CC2 = No
COCc1nnc(-c2ccc[n+]([O-])c2)n1-c1c(Cl)c(Cl)cc2[nH]c(=O)c(=O)[nH]c12 = No

Dear all, I need the recorded test outcome for COc1cc(C(C)C)c2c(c1)S(=O)(=O)N(COc1cc(=O)n3cccc(OCCN4CCCCC4)c3n1)C2=O , thank you.
No

What is the recorded call for this compound in the test? c1ccc2cc3ccccc3cc2c1
Yes

For this compound, state the assay outcome: c1ccc(C(O[C@@H]2CCCN(CCc3ccc4c(c3)OCO4)C2)c2ccccc2)cc1
No

Tell me the recorded outcome of this test for CCCCCCCC/C=C\CCCCCCCC(=O)OC[C@@H](O)[C@H]1OC[C@H](O)[C@H]1O .
No

====

test: STM_H9_CystineISnorm_perc: Stemina devTOX quickPredict H9 human embryonic stem cell (hESC)-based Assay for Cystine (CYSS) Metabolite Biomarker, Normalized (AID 2283713)
The source made the active and inactive calls. The calls were made as follows: active = hit-call score of the fitted dose curve at least 0.9, where 1 is the maximum; inactive = score below 0.9.
Parameter call: string, one of Yes for active, No for inactive

Below are worked cases with known answers.
O=c1[nH]cnc2c1ncn2[C@H]1CC[C@@H](CO)O1 = No
CCN(CC)C(=S)SSC(=S)N(CC)CC = Yes
COc1cc2c(c(OC)c1OC)-c1ccc(OC)c(=O)cc1[C@@H](NC(C)=O)CC2 = Yes

Here's the next entry for you.
How did this test come out for CC(C)C(=O)Nc1ccc([N+](=O)[O-])c(C(F)(F)F)c1 ?
Yes

====

Read-out: Keratin 19 (KRT19), KRT19 (gene 3880)
Experiment: LTEA_HepaRG_KRT19: Life Technologies and Expression Analysis (LTEA) Assay for Keratin 19 (KRT19) using HepaRG (AID 2283512)
Conditions: mRNA level, 48 h; actives raise or lower the signal
Experimental: LTEA_HepaRG is a cell based, multiplexed-readout assay that uses HepaRG, a human liver cell line, with measurements taken at 48 hours after chemical dosing on a 96-well plate.LTEA_HepaRG_KRT19 is one of 102 assay component(s) measured in the LTEA HepaRG cell culture assay. It is a marker of Cell proliferation, survival, death.Data from the assay component LTEA_HepaRG_KRT19 was analyzed into 1 endpoint. […]
Activity calls are given as the source filed them. Rule for the calls: active = hit-call score of the fitted dose curve at least 0.9, where 1 is the maximum; inactive = score below 0.9.
Parameter call: string, one of active, inactive

OC(CCl)CCl = inactive
CC[C@H](C)C(=O)O[C@H]1C[C@H](O)C=C2C=C[C@H](C)[C@H](CC[C@@H](O)C[C@@H](O)CC(=O)O)[C@H]21 = inactive

# evaluate next
Called result for OC[C@H]1O[C@@H]2O[C@H]3[C@H](O)[C@@H](O)[C@@H](O[C@H]4[C@H](O)[C@@H](O)[C@@H](O[C@H]5[C@H](O)[C@@H](O)[C@@H](O[C@H]6[C@H](O)[C@@H](O)[C@@H](O[C@H]7[C@H](O)[C@@H](O)[C@@H](O[C@H]1[C@H](O)[C@H]2O)O[C@@H]7CO)O[C@@H]6CO)O[C@@H]5CO)O[C@@H]4CO)O[C@@H]3CO
inactive

====

molecular target: X-box-binding protein 1 (Homo sapiens) (UniProt P17861); experiment: ATG_Xbp1_CIS: Attagene CIS-FACTORIAL HepG2 Assay for human X-box Binding Protein 1 (XBP1) (AID 2282972); details: HepG2 XBP1 cis-element reporter, Attagene multiplex; actives raise or lower the signal
Sequence (P17861 whole entry, looked up): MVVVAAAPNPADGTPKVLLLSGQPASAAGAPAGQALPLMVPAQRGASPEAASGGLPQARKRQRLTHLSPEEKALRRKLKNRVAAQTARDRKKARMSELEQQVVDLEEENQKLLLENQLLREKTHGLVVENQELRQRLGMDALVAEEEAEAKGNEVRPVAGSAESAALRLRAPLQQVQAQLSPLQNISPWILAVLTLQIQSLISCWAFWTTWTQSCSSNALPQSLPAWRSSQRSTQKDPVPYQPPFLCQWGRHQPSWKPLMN
Active and inactive are the calls of the source. Rule for the calls: active = hit-call score of the fitted dose curve at least 0.9, where 1 is the maximum; inactive = score below 0.9.
Please answer using one outcome listed in 1.0 (active), 0.0 (inactive)

OCc1c[nH]c2ccccc12 = 0.0
CC(C)CC(C)O (centres undefined) = 0.0
O=S1(=O)CCCO1 = 0.0

Please indicate how the test categorized CCCCCCCCN(C)C .
0.0

What outcome does the record of this test show for Cc1cccc(O)c1C ?
0.0

Hi, sorry to bother you, what did the test record for Cc1ccc(S(=O)(=O)NC(=O)NN2CCCCCC2)cc1 ?
0.0

====

Read-out: CD38, CD38 (gene 952)
Experiment: BSK_SAg_CD38: BioMAP Diversity Plus: SAg Assay for CD38 Biomarker Activity (AID 2283087)
Details: primary human HUVEC with PBMC; actives raise or lower the signal
Method: BSK_SAg is a cell-based, multiplexed-readout assay that uses umbilical vein endothelium and peripheral blood mononuclear cells, a human vascular primary cell co-culture, with measurements taken at 24 hours after chemical dosing in a 96-well plate.BSK_SAg_CD38 is one of 10 assay component(s) measured or calculated from the BSK_SAg assay. […] This assay endpoint, BSK_SAg_CD38, was analyzed with bidirectional fitting relative to DMSO as the negative control and baseline of activity. […]
Activity calls are given as the source filed them. Rule for the calls: active = hit-call score of the fitted dose curve at least 0.9, where 1 is the maximum; inactive = score below 0.9.
Could you please pick one outcome from this set? Yes for active, No for inactive

Kindly provide the recorded test outcome for the following molecule: Cc1nccn1-c1ccc(Sc2cccc(C3(C(N)=O)CCOCC3)c2)cc1
Yes

# lookup: test call for FC(F)(F)C(F)(F)C(F)(F)C(F)(F)C(F)(F)C(F)(F)I
No

Hi, do you know how CCn1nc(C)c2c1C(=O)NCC(c1ccc(O)cc1)=N2 came out in this test?
Yes

Assay result, entry C=CCc1cc(S(=O)(=O)c2ccc(O)c(CC=C)c2)ccc1O — outcome?
Yes

Returns: the outcome recorded for NC(=O)N1c2ccccc2C=Cc2ccccc21 in this assay.
No

I'd appreciate the recorded outcome for c1ccc2c(c1)-c1cccc3c1c-2cc1ccccc13 from this test.
No

For OC(CCl)CCl , what call appears in the results of this test?
No

Lab log entry: CC[C@H](C)C(=O)O[C@H]1C[C@H](O)C=C2C=C[C@H](C)[C@H](CC[C@@H](O)C[C@@H](O)CC(=O)O)[C@H]21 — outcome as called in the assay?
No

Outcome? NNC(=O)c1ccncc1
No

Hi, do you know how CC(C)C(=O)Nc1ccc([N+](=O)[O-])c(C(F)(F)F)c1 came out in this test?
Yes

In this assay, the call recorded for OCCNCCO was what?
No

Give the logged outcome of this assay for the following molecule: O=C1CN(N=Cc2ccc([N+](=O)[O-])o2)C(=O)N1
No

Source: PubChem BioAssay (EPA / NIEHS)
